Record form. Attribute: abundance fitness. Fill in for each entry.
B1: Intersectin-1, residues 909 to 971; numbered along this chain, Q15811 (parent)
chain: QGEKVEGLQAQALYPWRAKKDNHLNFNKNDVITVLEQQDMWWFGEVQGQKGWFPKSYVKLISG

variants of: B1; assay: abundance fitness (aPCA) (normalised: wild type 0, dead -1); higher = more abundant; growth selection in yeast, the domain comes from the species named; conditions: Homo sapiens
In your answer, state the number alone without any accompanying words.

Documented abundance fitness of D39V : -0.304

Recorded result, Q9A , abundance fitness: -0.07

Looking up N25L , I see its abundance fitness listed as -0.28

Entry V34T — recorded abundance fitness = -0.711
